Answer each item with its documented cell viability.
Tested on: HepG2
assay-protocol: cell viability relative to DMSO; higher = less toxic
condition-context: 72 h; 1000 nM
Provide only the numeric value, understood in %.

Could you tell me which cell viability is on file for CN1CC[C@@H](NC(=O)Nc2ccc(C#N)cc2)C[C@@H]1c1nc2ccccc2[nH]1 [glasdegib] ?
96.2

Returns the measured cell viability for the input compound. Input: CC(=O)O[C@H]1C(=O)[C@@]2(C)[C@H]([C@H](OC(=O)c3ccccc3)[C@]3(O)C[C@H](OC(=O)[C@H](O)[C@@H](NC(=O)c4ccccc4)c4ccccc4)C(C)=C1C3(C)C)[C@]1(OC(C)=O)CO[C@@H]1C[C@@H]2O [paclitaxel]
36.5

Quick one: cell viability for O=C(Nc1nc2cccc(-c3ccc(CN4CCS(=O)(=O)CC4)cc3)n2n1)C1CC1 [filgotinib] ?
102

Which measured cell viability value corresponds to C[C@]1(Cn2ccnn2)[C@H](C(=O)O)N2C(=O)C[C@H]2S1(=O)=O [tazobactam] ?
113

Given the entry CC(=O)Nc1ccc(C(=O)NC(C)(C)C)cc1 [CPI-1189] , report its measured cell viability.
97.4

# get_value(readout='cell viability', item= `Cc1c(N)cccc1Cn1ccc(OCCc2cccs2)cc1=O` )
99.8

Which cell viability value is on record for COc1ccc(Nc2nccc(NCCO)n2)cc1 [cardiogenol-C] ?
108

Bench note: what cell viability did Cc1ccc([N+](=O)[O-])cc1O [2-methyl-5-nitrophenol] show?
100

###

Tested on: Caco-2
assay-protocol: cell viability relative to DMSO; higher = less toxic
condition-context: 72 h; 10 nM
I'd be grateful if you could share measured cell viability for these entries.
State the value with its unit after it.

Requested field: cell viability. Item: C[C@@]12CC[C@@H]3[C@@](CC[C@H]4[C@@]3(C)CCC[C@@]4(C)C(=O)O)(CC1=O)C2 [isosteviol]
99.9%

I would be grateful if you could share the reported cell viability for O=C1Nc2ccc(I)cc2C1=Cc1cc(Br)c(O)c(Br)c1 [GW-5074] .
97.5%

Any idea what its cell viability is? The compound is OC[C@H]1O[C@H](O[C@]2(CCl)O[C@H](CCl)[C@@H](O)[C@@H]2O)[C@H](O)[C@@H](O)[C@H]1Cl [sucralose]
94.1%

Look up cell viability: O=c1c2ccccc2[se]n1-c1ccccc1 [Ebselen]
89.2%

Entry under review: CNC(=O)c1ccccc1Nc1nc(Nc2ccc(N3CCOCC3)cc2OC)ncc1Cl [NVP-TAE226] . Reported cell viability?
104%

If you can, please state the reported cell viability value of O=C(O)c1cn(-c2ccc(F)cc2)c2cc(N3CCNCC3)c(F)cc2c1=O [sarafloxacin] .
87.3%

Using the record for CS(=O)(=O)OCCCCOS(C)(=O)=O [busulfan] , report its cell viability.
93.4%

Return reported cell viability; argument: NCCc1c[nH]c2ccc(C(N)=O)cc12 [5-carboxamidotryptamine]
96.5%

For O=C(NO)C1(CS(=O)(=O)c2ccc(Oc3ccc(Cl)cc3)cc2)CCOCC1 [CTS-1027] , what is its reported cell viability?
109%

Report cell viability for CN1CC[C@@H](NC(=O)Nc2ccc(C#N)cc2)C[C@@H]1c1nc2ccccc2[nH]1 [glasdegib] please.
96.5%

Report cell viability for NS(=O)(=O)c1cc(C(=O)O)cc(N2CCCC2)c1Oc1ccccc1 [piretanide] please.
97.4%

Look up cell viability: CCN(CC)CCOc1ccccc1C(=O)CCc1ccccc1 [etafenone]
104%

Form field: reported cell viability of O=c1c2ccccc2[se]n1-c1ccccc1 [ebselen]
102%

What value of cell viability has been recorded for this entry: Fc1ccc([C@@H]2CCNC[C@H]2COc2ccc3c(c2)OCO3)cc1 [paroxetine]
102%

Consider the compound shown here: `CCN(CCNC(=O)Nc1ccccc1Br)c1cccc(C)c1` What is its recorded cell viability?
102%

May I ask what cell viability has been recorded for CN1C(=O)C(F)=C[C@]2(C)[C@H]3CC[C@]4(C)[C@@H](C(=O)NCc5nc6cccnc6[nH]5)CC[C@H]4[C@@H]3CC[C@@H]12 [MK-0773] ?
92.4%

Sample C[C@H]1O[C@@H](Oc2c(-c3cc(O)c(O)c(O)c3)oc3cc(O)cc(O)c3c2=O)[C@@H](O)[C@@H](O)[C@@H]1O [myricitrin] — what was its cell viability?
105%

Returns the measured cell viability for the input compound. Input: Nc1ccn([C@H]2C[C@H](O)[C@@H](CO)O2)c(=O)n1 [torcitabine]
95%
